Entry source: PubChem BioAssay (EPA / NIEHS)

- Read-out: Tumor necrosis factor (Homo sapiens) (UniProt P01375)
- Sequence (P01375 whole entry, looked up): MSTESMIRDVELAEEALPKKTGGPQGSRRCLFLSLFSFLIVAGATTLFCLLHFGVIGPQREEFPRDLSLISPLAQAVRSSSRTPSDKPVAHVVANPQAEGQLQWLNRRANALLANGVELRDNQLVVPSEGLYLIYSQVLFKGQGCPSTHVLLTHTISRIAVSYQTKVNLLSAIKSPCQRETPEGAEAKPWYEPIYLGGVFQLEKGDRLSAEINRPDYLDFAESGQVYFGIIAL
- PROTOCOL SUMMARY: BSK_LPS_TNFa: BioMAP Diversity Plus: LPS Assay for Tumour Necrosis Factor alpha (TNFa) Biomarker Activity (AID 2283085);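 on AC50: TNFa protein level quantified by ELISA in the co-culture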
- EXPERIMENTAL SETUP: primary human HUVEC with PBMC; actives raise or lower the signal
Activity calls are given as the source filed them. How the source made its calls: active means hit-call score of the fitted dose curve at least 0.9, where 1 is the maximum; inactive means score below 0.9.
EXPERIMENTAL ENDPOINT: AC50

// solved cases for AC50 follow
>>> df
                                   compound  recorded_measurement
0               Cc1cc(C2CC2)nc(Nc2ccccc2)n1              inactive
1  CCOC(=O)CC(SP(=O)(OC)OC)C(=O)OCC (stereo not drawn)              inactive
2                 CSc1nnc(C(C)(C)C)c(=O)n1N              inactive
3  CON=C(C(=O)OC)c1ccccc1CON=C(C)c1cccc(C(F)(F)F)c1      5.02 µM (active)
4                      Nc1nc(N)nc(NC2CC2)n1              inactive
5                           C[N+]1(C)CCCCC1              inactive

**Query** For the compound shown here, `CSC1=N[C@@](C)(c2ccccc2)C(=O)N1Nc1ccccc1` , give the reported AC50.
**Result** inactive

**Query** For the compound shown here, `COc1cccc(C(=O)NN(C(=O)c2cc(C)cc(C)c2)C(C)(C)C)c1C` , give the reported AC50.
**Result** inactive
